# System Tested: Lysosomal acid glucosylceramidase (Homo sapiens)
# Test: Glucocerebrosidase-p2 (AID 348); further: potency means the concentration at half of the fitted maximal effect
# Reported Conditions: purified GBA, blue fluorogenic substrate, 40 min
Active and inactive are the calls of the source. No stated cut-off is given here; in the data, active means potency below about 10 µM; inactive means the rest.
Outcomes: active, inactive

                           substance_smiles                             system_tested  assigned_class
0  COc1cccc(Cn2c(=O)c(-c3ccc(Cl)cc3)nc3cnc(N4CCN(C)CC4)nc32)c1  Lysosomal acid glucosylceramidase (Homo sapiens)        inactive
1       FC(F)(F)c1ccccc1-c1nccc(-n2ccnc2)n1  Lysosomal acid glucosylceramidase (Homo sapiens)        inactive
2  COc1ccc(-c2nc3cnc(OC)nc3n(-c3ccccc3)c2=O)cc1  Lysosomal acid glucosylceramidase (Homo sapiens)        inactive
3  COc1ccc(-c2nc3cnc(N(C)C)nc3n(C[C@H]3CCCO3)c2=O)cc1  Lysosomal acid glucosylceramidase (Homo sapiens)        inactive
4  COc1ccc(C(=O)N2CCC[C@@]3(CCN(Cc4cc(C(F)(F)F)cc(C(F)(F)F)c4)C3)C2)cc1  Lysosomal acid glucosylceramidase (Homo sapiens)        inactive
5  N#Cc1ccc(CN2CC[C@@]3(CCCN(C(=O)c4cc(C(F)(F)F)cc(C(F)(F)F)c4)C3)C2)cc1  Lysosomal acid glucosylceramidase (Homo sapiens)        inactive
6  COc1cccc(Cn2c(=O)c(-c3cn(C)c4ccccc34)nc3cncnc32)c1  Lysosomal acid glucosylceramidase (Homo sapiens)        inactive
7      Fc1ccc(Nc2nc(-c3ccoc3)nc3ccccc23)cc1  Lysosomal acid glucosylceramidase (Homo sapiens)          active
8     Cc1cccc(CNc2nc(-c3ccoc3)nc3ccccc23)c1  Lysosomal acid glucosylceramidase (Homo sapiens)        inactive
9  FC(F)(F)c1ccccc1-c1ccc2ncnc(NCCN3CCOCC3)c2c1  Lysosomal acid glucosylceramidase (Homo sapiens)          active

###

activity change, negative = inhibition values for the compounds below.
# Test: AP1 Signaling Pathway (AID 357);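 further: ME-180 reporter cells stimulated with EGF at its EC50 level; on the % scale 0 is the no-effect control and ±100 the full control effect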
# Reported Conditions: ME-180 (cervical carcinoma) AP-1-bla reporter, EGF-induced, beta-lactamase ratio, 5 h; at 7.69 µM (top of the series) unless noted
Records with an inconclusive call do not appear.
Endpoint Name: activity change, negative = inhibition (%)

In [3]: df
Out[3]:
                            substance_smiles  number
 0          Cc1cnc(CNc2cc(-c3cccnc3)ncn2)cn1   -14.2
 1  N#Cc1cccc(NC(=O)N2CCC3(CC2)CCN(C(=O)c2cnccn2)CC3)c1   -8.55
 2             c1ccc(CNc2ncncc2-c2cccnc2)cc1    1.26
 3  Cc1noc(C)c1-c1nc(N(C)Cc2ccco2)c2ccccc2n1   -1.42
 4   O=c1c(-c2ccc(F)cc2)nc2cncnc2n1Cc1ccccc1   -5.88
 5    COCC(=O)N1CCC[C@@]2(CCN(c3ccccn3)C2)C1    -4.6
 6  COc1ccc(C(=O)N2CCC3(CCCN(Cc4nccs4)C3)CC2)cc1   -4.03
 7   O=C(c1ccco1)N1CCC2(CCN(Cc3nccs3)CC2)CC1    5.22
 8  COc1cccc(Cn2c(=O)cnc3cnc(Oc4cccc(Cl)c4)nc32)c1   -19.7
 9  O=C(c1cnccn1)N1CCC2(CC1)CCN(c1ccccc1)CC2   -3.01
10  O=C(c1ccncc1)N1CCC2(CCCN(c3ccccc3)C2)CC1   -3.67
11    O=c1cnc2cnc(N3CCOCC3)nc2n1Cc1ccc(F)cc1   -5.88
12  Cn1cccc1C(=O)N1CCC2(CCN(Cc3ccc(C#N)cc3)CC2)CC1    11.1
13  O=C(c1cnccn1)N1CCC2(CC1)CN(C(c1ccccc1)c1ccccc1)C2      -2
14  c1ccc(-c2ccc(N3CC[C@@]4(CCCNC4)C3)cc2)cc1    16.6
15  COC(=O)N1CCC2(CCCN(C(=O)Nc3ccc(OC)cc3)C2)CC1    -3.8
16           Cc1noc(C)c1-c1cncnc1N1CCN(C)CC1    1.14
17  COc1cccc(Cn2c(=O)c(-c3cccc(Cl)c3)nc3cncnc32)c1   -20.4
18  CC(=O)N1CCC2(CCCN(Cc3cc(C(F)(F)F)cc(C(F)(F)F)c3)C2)CC1    7.77
19    CN1CCN(c2ccnc(-c3ccccc3C(F)(F)F)n2)CC1    8.46
20  COCCn1c(=O)c(-c2cccc(C#N)c2)nc2cnc(N3CCN(C)CC3)nc21   -14.7
21  O=C(c1csnn1)N1CCC2(CCCN(Cc3ccccc3)C2)CC1    9.34
22           CN(Cc1ccco1)c1ccnc(-c2cccnc2)n1    16.2

// provenance: PubChem BioAssay (NCATS)
